The reported numbers originate from ChEMBL document CHEMBL1909046.

# target or test system: UniProt P07943
# Type: tissue-based, Lens of camera-type eye
measurement kind: IC50

Solved cases below.
{"compound": "COC(=O)[C@H](c1ccccc1Cl)N1CCc2sccc2C1 [CLOPIDOGREL]", "result": "Not Active"}
{"compound": "Cn1cnc([N+](=O)[O-])c1Sc1ncnc2nc[nH]c12 [AZATHIOPRINE]", "result": "Not Active"}
{"compound": "NC(CO)(CO)CO [TROMETHAMINE]", "result": "Not Active"}
{"compound": "CCCc1cc(=O)[nH]c(=S)[nH]1 [PROPYLTHIOURACIL]", "result": "Not Active"}
{"compound": "N#C[C@H](O[C@@H]1O[C@H](CO[C@@H]2O[C@H](CO)[C@@H](O)[C@H](O)[C@H]2O)[C@@H](O)[C@H](O)[C@H]1O)c1ccccc1 [AMYGDALIN]", "result": "Not Active"}

# return IC50 for each item in the list
1. COc1ccc(C(CN(C)C)C2(O)CCCCC2)cc1 (centres undefined) [VENLAFAXINE]
2. C[C@](N)(Cc1ccc(O)cc1)C(=O)O [METYROSINE]
3. CO[C@@H]1[C@@H](O[C@@H]2O[C@H](C)[C@@H](O[C@H]3C[C@@](C)(O)[C@@H](OC(=O)CC(C)C)[C@H](C)O3)[C@H](N(C)C)[C@H]2O)[C@@H](CC=O)C[C@@H](C)[C@@H](O)/C=C/C=C/C[C@@H](C)OC(=O)C[C@H]1O [KITASAMYCIN]
4. C=C(C)[C@@H]1[C@H]2OC(=O)[C@@H]1[C@]1(O)C[C@H]3O[C@]34C(=O)O[C@H]2[C@]14C [PICROTOXININ]
5. CC(=O)O[C@]1(C(C)=O)CC[C@H]2[C@@H]3C=C(Cl)C4=CC(=O)CC[C@]4(C)[C@H]3CC[C@@]21C [CHLORMADINONE ACETATE]
6. CC(C)(C)NCC(O)c1cc(O)cc(O)c1 (centres undefined) [TERBUTALINE]
7. CCOC(=O)OC(C)OC1=C(C(=O)Nc2ccccn2)N(C)S(=O)(=O)c2ccccc21 (centres undefined) [AMPIROXICAM]

a:
Not Active
Not Active
Not Active
Not Active
Not Active
Not Active
Not Active

Batch lookup, IC50 per entry.
1. C=CC[C@@H]1/C=C(\C)C[C@H](C)C[C@H](OC)[C@H]2O[C@@](O)(C(=O)C(=O)N3CCCC[C@H]3C(=O)O[C@H](/C(C)=C/[C@@H]3CC[C@@H](O)[C@H](OC)C3)[C@H](C)[C@@H](O)CC1=O)[C@H](C)C[C@@H]2OC [TACROLIMUS ANHYDROUS]
2. CNC(=O)Oc1ccc2c(c1)[C@]1(C)CCN(C)[C@@H]1N2C [PHYSOSTIGMINE]

a:
["Not Active", "Not Active"]

---

# assay remarks: DRUGMATRIX: Glutamate, NMDA, Agonism radioligand binding (ligand: [3H] CGP-39653)
# Type: cell membranes, Rattus norvegicus, Wistar, Cerebral cortex, Membrane
# measurement conditions: Not Active = under 50% inhibition at 10 µM
measurement kind: IC50

{"compound": "O=C1c2c(O)ccc(O)c2C(=O)c2c(NCCNCCO)ccc(NCCNCCO)c21 [MITOXANTRONE]", "result": "Not Active"}
{"compound": "CC(=O)[C@@]1(O)CC[C@H]2[C@@H]3C[C@H](C)C4=CC(=O)C=C[C@]4(C)[C@@]3(F)[C@@H](O)C[C@@]21C [FLUOROMETHOLONE]", "result": "Not Active"}
{"compound": "CN(C)[C@@H]1C(O)=C(C(N)=O)C(=O)[C@@]2(O)C(O)=C3C(=O)c4c(O)cccc4[C@@](C)(O)[C@H]3[C@H](O)[C@@H]12 [OXYTETRACYCLINE]", "result": "Not Active"}

---

# target or test system: Polyunsaturated fatty acid lipoxygenase ALOX15 (Oryctolagus cuniculus); note: in other assays of this panel Not Active means under 50% inhibition at 10 µM;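 note: inhibition of 15-lipoxygenase enzyme activity measured with linoleic acid as the substrate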
# Sequence (P12530 whole entry): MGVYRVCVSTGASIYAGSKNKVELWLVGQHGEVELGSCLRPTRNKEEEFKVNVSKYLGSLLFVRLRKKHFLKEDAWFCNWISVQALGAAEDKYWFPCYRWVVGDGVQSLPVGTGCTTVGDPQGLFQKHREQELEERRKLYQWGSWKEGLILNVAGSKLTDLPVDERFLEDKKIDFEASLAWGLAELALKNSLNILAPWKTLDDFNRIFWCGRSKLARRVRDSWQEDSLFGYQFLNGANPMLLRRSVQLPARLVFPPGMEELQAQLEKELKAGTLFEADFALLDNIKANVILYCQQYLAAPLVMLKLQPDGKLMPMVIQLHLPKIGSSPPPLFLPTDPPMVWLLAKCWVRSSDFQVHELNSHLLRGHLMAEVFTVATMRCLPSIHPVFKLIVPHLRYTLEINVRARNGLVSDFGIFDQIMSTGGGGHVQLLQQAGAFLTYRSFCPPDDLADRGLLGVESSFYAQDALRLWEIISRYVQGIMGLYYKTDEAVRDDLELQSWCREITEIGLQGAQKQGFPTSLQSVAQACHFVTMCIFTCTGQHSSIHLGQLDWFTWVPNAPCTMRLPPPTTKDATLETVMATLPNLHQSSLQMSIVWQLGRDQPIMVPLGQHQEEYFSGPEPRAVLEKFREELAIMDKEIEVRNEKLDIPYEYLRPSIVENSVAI
# assay remarks: biochemical
# Type: tissue-based, Reticulocytes
# measurement conditions: reticulocytes
measurement kind: IC50

The examples below pair each entry with its known result.
{"compound": "CC(CCc1ccccc1)NCC(O)c1ccc(O)c(C(N)=O)c1 (centres undefined) [LABETALOL]", "IC50": "Not Active"}
{"compound": "COc1ccc(CN(CCN(C)C)c2ccccn2)cc1 [PYRILAMINE]", "IC50": "Not Active"}
{"compound": "NC(=O)c1ncn([C@@H]2O[C@H](CO)[C@@H](O)[C@H]2O)n1 [RIBAVIRIN]", "IC50": "Not Active"}
{"compound": "COc1ccc2c(c1)c(CC(=O)OCC(=O)O)c(C)n2C(=O)c1ccc(Cl)cc1 [ACEMETACIN]", "IC50": "Not Active"}
{"compound": "COC(=O)[C@@H]1[C@H]2C[C@H]3c4[nH]c5ccccc5c4CCN3C[C@@H]2CC[C@@H]1O [YOHIMBINE]", "IC50": "Not Active"}
{"compound": "CCc1cccc2c3c([nH]c12)C(CC)(CC(=O)O)OCC3 (centres undefined) [ETODOLAC]", "IC50": "Not Active"}
{"compound": "CCOC(=O)c1ccc(N)cc1 [BENZOCAINE]", "IC50": "Not Active"}
{"compound": "COCc1c(C(C)C)nc(C(C)C)c(/C=C/[C@@H](O)C[C@@H](O)CC(=O)O)c1-c1ccc(F)cc1 [CERIVASTATIN]", "IC50": "Not Active"}
{"compound": "COc1ccc(C(CN(C)C)C2(O)CCCCC2)cc1 (centres undefined) [VENLAFAXINE]", "IC50": "Not Active"}
{"compound": "CN1C(C(=O)Nc2ccccn2)=C(O)c2ccccc2S1(=O)=O [PIROXICAM]", "IC50": "Not Active"}

Hello, I would appreciate it if you could give IC50 for each entry below.
1. CC(=O)S[C@@H]1CC2=CC(=O)CC[C@]2(C)[C@H]2CC[C@@]3(C)[C@@H](CC[C@@]34CCC(=O)O4)[C@H]12 [SPIRONOLACTONE]
2. O=C1NC(=O)C(c2ccccc2)(c2ccccc2)N1 [PHENYTOIN]
3. COC1=CC(=O)C[C@@H](C)[C@]12Oc1c(Cl)c(OC)cc(OC)c1C2=O [GRISEOFULVIN]

a:
1. Not Active
2. Not Active
3. Not Active

Batch request: IC50 per item, same order as input.
1. NCC(=O)O [GLYCINE]
2. CC(C)(S)[C@@H](N)C(=O)O [PENICILLAMINE]
3. CC1(C)[C@H]2CC[C@]1(C)C(=O)C2 [(-)-CAMPHOR]
4. COc1c(C)c2c(c(O)c1C/C=C(\C)CCC(=O)OCCN1CCOCC1)C(=O)OC2 [MYCOPHENOLATE MOFETIL]
5. Nc1ccc(S(N)(=O)=O)cc1 [SULFANILAMIDE]
6. Cc1ccccc1N1CCN(CCc2nnc3n2CCCC3)CC1 [DAPIPRAZOLE]

a:
Not Active
Not Active
Not Active
Not Active
Not Active
Not Active

---

# target or test system: Progesterone receptor (Bos taurus)
# Sequence (Q690N0 whole entry): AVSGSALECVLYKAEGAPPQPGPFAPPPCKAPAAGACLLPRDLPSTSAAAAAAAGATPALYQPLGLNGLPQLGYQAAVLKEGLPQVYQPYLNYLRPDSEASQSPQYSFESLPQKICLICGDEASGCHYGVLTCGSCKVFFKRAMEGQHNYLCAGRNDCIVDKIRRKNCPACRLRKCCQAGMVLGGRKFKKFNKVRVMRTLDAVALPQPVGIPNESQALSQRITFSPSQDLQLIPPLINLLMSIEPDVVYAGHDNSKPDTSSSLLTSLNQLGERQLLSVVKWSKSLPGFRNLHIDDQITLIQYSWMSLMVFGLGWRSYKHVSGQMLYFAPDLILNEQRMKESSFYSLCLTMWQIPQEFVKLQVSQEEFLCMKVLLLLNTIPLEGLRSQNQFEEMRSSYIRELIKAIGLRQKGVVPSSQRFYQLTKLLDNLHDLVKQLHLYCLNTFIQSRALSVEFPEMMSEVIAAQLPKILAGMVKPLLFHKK
# assay remarks: DRUGMATRIX: Progesterone radioligand binding (ligand: [3H] R-5020)
# Format: tissue-based, Uterus
# measurement conditions: Not Active = under 50% inhibition at 10 µM; read-out: IC50
measurement kind: pIC50
Numbers only, as −log10 of the molar value.

Worked examples follow.
{"compound": "CC(=O)OCC(=O)[C@@]1(OC(C)=O)[C@@H](C)C[C@H]2[C@@H]3C[C@H](F)C4=CC(=O)C=C[C@]4(C)[C@@]3(F)[C@@H](O)C[C@@]21C [DIFLORASONE DIACETATE]", "readout number": 6.94}
{"compound": "CC(=O)[C@H]1CC[C@H]2[C@@H]3CCC4=CC(=O)CC[C@]4(C)[C@H]3CC[C@]12C", "readout number": 7.55}
{"compound": "CC(=O)S[C@@H]1CC2=CC(=O)CC[C@]2(C)[C@H]2CC[C@@]3(C)[C@@H](CC[C@@]34CCC(=O)O4)[C@H]12", "readout number": 5.78}

I need pIC50 for every entry listed below, if you could help.
1. CC(=O)O[C@]1(C(C)=O)CC[C@H]2[C@@H]3C=C(Cl)C4=CC(=O)CC[C@]4(C)[C@H]3CC[C@@]21C [CHLORMADINONE ACETATE]
2. C[C@]12Cc3c[nH]nc3C[C@@H]1CC[C@@H]1[C@@H]2CC[C@@]2(C)[C@H]1CC[C@]2(C)O
3. Clc1ccccc1C(c1ccccc1)(c1ccccc1)n1ccnc1
4. CC(=O)[C@@]1(O)CC[C@H]2[C@@H]3C[C@H](C)C4=CC(=O)C=C[C@]4(C)[C@@]3(F)[C@@H](O)C[C@@]21C

a:
[8.28, 5.43, 5.06, 6.09]
